- Test system: Rattus norvegicus
- Protocol: Compound was tested for its effect on the gastric emptying rate of phenol red semisolid meal through the stomach at oral dose of 3.0 mg/kg in rats.
- Format: functional
Entries and their Gastric emptying
Unit % implied. Number only.

* COc1cc2[nH]nnc2cc1C(=O)NC1CCCCN(C)C1 (stereo unspecified) | 20
* CCN1CCCCC(NC(=O)c2cc3[nH]nnc3cc2OC)C1 (stereo unspecified) | 28
* CCN1CCCCC(NC(=O)c2cc3nnn(CC4CC4)c3cc2OC)C1 (stereo unspecified) | 34
* CCCn1nnc2cc(C(=O)NC3CCCCN(CC)C3)c(OC)cc21 (stereo unspecified) | 29
* CCN1CCCCC(NC(=O)c2cc3nnn(CC)c3cc2OC)C1 (stereo unspecified) | 31

Would you kindly share the measured Gastric emptying for COc1cc2[nH]nnc2cc1C(=O)NC1CCCCN(C(C)C)C1 (stereo unspecified) ?
31

Given the entry CCN1CCCCC(NC(=O)c2ccc3[nH]nnc3c2OC)C1 (stereo unspecified) , report its measured Gastric emptying.
11

// returns reported Gastric emptying for input CCN1CCCCC(NC(=O)c2cc3nnn(C)c3cc2OC)C1 (stereo unspecified)
49

Value lookup for Gastric emptying; key = CCN(CC)CCNC(=O)c1cc(Cl)c(N)cc1OC [METOCLOPRAMIDE]
39

Can you share its Gastric emptying? I mean this compound: CCOc1cc(N)c(Cl)cc1C(=O)NCC1CN(Cc2ccc(F)cc2)CCO1 (stereo unspecified) [MOSAPRIDE]
70

Which Gastric emptying value belongs to CCN1CCCCCCC(NC(=O)c2cc3[nH]nnc3cc2OC)C1 (stereo unspecified) ?
46
